Values compiled from paper PMC12603070.

Assign cytotoxicity at 20 µM to each entry below.
# Tested on: HT-29 cells
# Assay Explanation: Hoechst/propidium iodide cell death assay in HT-29
# Format: cell-based, human
# Experimental Conditions: Homo sapiens, HT-29, 48 h, HT-29; 48h; 20 μM; read-out: Percentage of cell death % 48h, HT-29
# Source text: A high-content imaging system (PerkinElmer; Operetta CLS), was used to quantify cell death and apoptosis by calculating the number of propidium iodide-positive cells relative to Hoechst-positive cells, and the number of Annexin V-positive cells relative to Hoechst-positive cells, respectively.
Lab book: enter the figure in %, no units written.

Request: Supply recorded cytotoxicity at 20 µM for CCCCCCCCc1ccc(CCC(N)(CO)CO)cc1 [Fingolimod (FTY720), Fingolimod] here.
Response: 69.1

Request: Supply recorded cytotoxicity at 20 µM for CCOc1nc2cccc(C(=O)OC(C)OC(=O)OC3CCCCC3)c2n1Cc1ccc(-c2ccccc2-c2nnn[nH]2)cc1 (stereo not shown) [Candesartan Cilexetil] here.
Response: 1.91

Request: Supply recorded cytotoxicity at 20 µM for COc1cc(C(=O)O)ccc1NC(=O)[C@@H]1N[C@@H](CC(C)(C)C)[C@](C#N)(c2ccc(Cl)cc2F)[C@H]1c1cccc(Cl)c1F [RG7388] here.
Response: 50

Request: Supply recorded cytotoxicity at 20 µM for Clc1ccc(C(Cn2ccnc2)OCc2ccsc2Cl)c(Cl)c1 (stereo not shown) [Tioconazole] here.
Response: 5.98

Request: Supply recorded cytotoxicity at 20 µM for CC(C)(C)c1cc(C(C)(C)C)c(NC(=O)c2c[nH]c3ccccc3c2=O)cc1O [Ivacaftor (VX-770), Ivacaftor] here.
Response: 60.7

Request: Supply recorded cytotoxicity at 20 µM for CCOC(=O)C1=C(C)NC(C)=C(C(=O)OCC)C1c1ccccc1/C=C/C(=O)OC(C)(C)C [Lacidipine] here.
Response: 2.6

Request: Supply recorded cytotoxicity at 20 µM for C#C[C@]1(O)CC[C@H]2[C@@H]3CCC4=CCCC[C@@H]4[C@H]3C(=C)C[C@@]21CC [Desogestrel] here.
Response: 2.12

---

Assign cytotoxicity at 20 µM to each entry below.
# Tested on: NIH-3T3 cells
# Assay Explanation: Hoechst/propidium iodide cell death assay in NIH-3T3
# Assay type: cell-based
# Experimental Conditions: Mus musculus, NIH3T3, 24 h, 20 µM, 24 h; read-out: Percentage of cell death % 24h NIH3t3
Lab book: enter the figure in %, no units written.

Request: Supply recorded cytotoxicity at 20 µM for C#C[C@]1(O)CC[C@H]2[C@@H]3CCC4=CCCC[C@@H]4[C@H]3C(=C)C[C@@]21CC here.
Response: 16.1

Request: Supply recorded cytotoxicity at 20 µM for Cc1ccc(Sc2ccccc2N2CCNCC2)c(C)c1 here.
Response: 78.5

Request: Supply recorded cytotoxicity at 20 µM for CCCCCCCCCCCCCCCC[N+](C)(C)CCN(Cc1ccc(OC)cc1)c1ncccn1 [Thonzonium Bromide] here.
Response: 86.2

Request: Supply recorded cytotoxicity at 20 µM for CN(C(=O)CN(CCO)CC(=O)N(C)C(C)(C)Cc1ccccc1)C(C)(C)Cc1ccccc1 here.
Response: 28.2

Request: Supply recorded cytotoxicity at 20 µM for COc1cc(C(=O)O)ccc1NC(=O)[C@@H]1N[C@@H](CC(C)(C)C)[C@](C#N)(c2ccc(Cl)cc2F)[C@H]1c1cccc(Cl)c1F here.
Response: 35.1

Request: Supply recorded cytotoxicity at 20 µM for COc1cc2c(Oc3ccc4[nH]c(C)cc4c3F)ncnc2cc1OCCCN1CCCC1 here.
Response: 76.9

Request: Supply recorded cytotoxicity at 20 µM for CC1(C)Cc2c(-c3ccccc3)c(-c3ccc(Cl)cc3)c(CC(=O)O)n2C1 here.
Response: 0.823

---

# System: NIH-3T3 cells
# Assay Explanation: Hoechst/propidium iodide cell death assay in NIH-3T3
# Type: cell-based
# Experimental Conditions: Mus musculus, NIH3T3, 24 h, 20 µM, 24 h; read-out: Percentage of cell death % 24h NIH3t3
Structures can show the parent of a compound that is named as a salt.
Outcome Measure: cytotoxicity at 20 µM (%)
Lab book: enter the figure in %, no units written.

Request: Supply recorded cytotoxicity at 20 µM for CCOC(=O)N1CCC(=C2c3ccc(Cl)cc3CCc3cccnc32)CC1 here.
Response: 9.83

Request: Supply recorded cytotoxicity at 20 µM for O=C(NC1CCN(CCCCC2(C(=O)NCC(F)(F)F)c3ccccc3-c3ccccc32)CC1)c1ccccc1-c1ccc(C(F)(F)F)cc1 [Lomitapide] here.
Response: 90.2

Request: Supply recorded cytotoxicity at 20 µM for C[C@H](CCC(=O)O)[C@H]1CC[C@H]2[C@@H]3CC[C@@H]4C[C@H](O)CC[C@]4(C)[C@H]3CC[C@]12C here.
Response: 2.68

Request: Supply recorded cytotoxicity at 20 µM for CCOc1cc(CC(=O)N[C@@H](CC(C)C)c2ccccc2N2CCCCC2)ccc1C(=O)O [Repaglinide] here.
Response: 0.236

Request: Supply recorded cytotoxicity at 20 µM for CCCSc1nc(N[C@@H]2C[C@H]2c2ccc(F)c(F)c2)c2nnn([C@@H]3C[C@H](OCCO)[C@@H](O)[C@H]3O)c2n1 here.
Response: 13.7

Request: Supply recorded cytotoxicity at 20 µM for O=C1c2c(O)ccc(O)c2C(=O)c2c(NCCNCCO)ccc(NCCNCCO)c21 [Mitoxantrone HCl] here.
Response: 0.018

---

# Tested on: HT-29 cells
# Assay Explanation: Hoechst/propidium iodide cell death assay in HT-29
# Assay type: cell-based, human
# Experimental Conditions: Homo sapiens, HT-29, 48 h, HT-29; 48h; 20 μM; read-out: Percentage of cell death % 48h, HT-29
Outcome Measure: cytotoxicity at 20 µM (%)
Lab book: enter the figure in %, no units written.

Request: Supply recorded cytotoxicity at 20 µM for CCCCCCCCCCCC1=C(O)C(=O)C=C(O)C1=O here.
Response: 51.8

Request: Supply recorded cytotoxicity at 20 µM for C=CC[C@@H]1/C=C(\C)C[C@H](C)C[C@H](OC)[C@H]2O[C@@](O)(C(=O)C(=O)N3CCCC[C@H]3C(=O)O[C@H](/C(C)=C/[C@@H]3CC[C@@H](O)[C@H](OC)C3)[C@H](C)[C@@H](O)CC1=O)[C@H](C)C[C@@H]2OC here.
Response: 2.46

Request: Supply recorded cytotoxicity at 20 µM for C=CCc1ccc(O)c(-c2ccc(O)c(CC=C)c2)c1 here.
Response: 11.1

Request: Supply recorded cytotoxicity at 20 µM for CC(C)(C)c1ccc(C(O)CCCN2CCC(C(O)(c3ccccc3)c3ccccc3)CC2)cc1 (stereo not shown) here.
Response: 89.6

---

# Test system: HT-29 cells
# Assay Explanation: Hoechst/propidium iodide cell death assay in HT-29
# Type: cell-based, human
# Experimental Conditions: Homo sapiens, HT-29, 24 h, 20 µM, 24 h; read-out: Percentage of cell death % 24h HT-29
Outcome Measure: cytotoxicity at 20 µM (%)
Lab book: enter the figure in %, no units written.

Request: Supply recorded cytotoxicity at 20 µM for C[C@@H](O[C@H]1OCCN(Cc2n[nH]c(=O)[nH]2)[C@H]1c1ccc(F)cc1)c1cc(C(F)(F)F)cc(C(F)(F)F)c1 [Aprepitant] here.
Response: 1.47

Request: Supply recorded cytotoxicity at 20 µM for CC[C@H](c1ccc(O)cc1)[C@@H](CC)c1ccc(O)cc1 [Hexestrol] here.
Response: 1.37

Request: Supply recorded cytotoxicity at 20 µM for C=C[C@@H]1C[C@]1(NC(=O)[C@@H]1C[C@@H](Oc2ncc(OC)c3ccc(Cl)cc23)CN1C(=O)[C@@H](NC(=O)OC(C)(C)C)C(C)(C)C)C(=O)NS(=O)(=O)C1CC1 [Asunaprevir (BMS-650032), Asunaprevir] here.
Response: 1.15

Request: Supply recorded cytotoxicity at 20 µM for Cc1c(C)c2c(c(C)c1O)CCC(C)(COc1ccc(CC3SC(=O)NC3=O)cc1)O2 (stereo not shown) [Troglitazone] here.
Response: 0.272

---

Assign %Cell death Caco-2 to each entry below.
# System: Caco-2 cells
# Type: cell-based
# Experimental Conditions: Caco-2
Structures can show the parent of a compound that is named as a salt.
Lab book: enter the figure in %, no units written.

Request: Supply recorded %Cell death Caco-2 for COC(=O)[C@]12CCC(C)(C)C[C@H]1[C@H]1C(=O)C=C3[C@@]4(C)C=C(C#N)C(=O)C(C)(C)[C@@H]4CC[C@@]3(C)[C@]1(C)CC2 here.
Response: 19.2

Request: Supply recorded %Cell death Caco-2 for CO/N=C1\C[C@]2(C[C@@H]3C[C@@H](C/C=C(\C)C[C@@H](C)/C=C/C=C4\CO[C@@H]5[C@H](O)C(C)=C[C@@H](C(=O)O3)[C@]45O)O2)O[C@H](/C(C)=C/C(C)C)[C@H]1C here.
Response: 8.4

Request: Supply recorded %Cell death Caco-2 for C[C@H]1O[C@@H](O[C@H]2CC[C@@]3(C)[C@@H](CC[C@]4(C)[C@@H]3C=C[C@]35OC[C@@]6(CCC(C)(C)C[C@H]63)[C@@H](O)C[C@]54C)[C@]2(C)CO)[C@H](O)[C@@H](O[C@@H]2O[C@H](CO)[C@@H](O)[C@H](O)[C@H]2O)[C@H]1O here.
Response: 1.2

Request: Supply recorded %Cell death Caco-2 for CCCCCCCCc1ccc(CCC(N)(CO)CO)cc1 here.
Response: 67.9

Request: Supply recorded %Cell death Caco-2 for CN(C(=O)CN(CCO)CC(=O)N(C)C(C)(C)Cc1ccccc1)C(C)(C)Cc1ccccc1 here.
Response: 13.9

Request: Supply recorded %Cell death Caco-2 for OC(CNCC(O)C1CCc2cc(F)ccc2O1)C1CCc2cc(F)ccc2O1 (stereo not shown) here.
Response: 45.0

Request: Supply recorded %Cell death Caco-2 for O=c1[nH]c2ccccc2n1C1CCN(CCCC(c2ccc(F)cc2)c2ccc(F)cc2)CC1 [Pimozide] here.
Response: 59.9

Request: Supply recorded %Cell death Caco-2 for CO[C@H]1C[C@H](O[C@H]2[C@H](C)O[C@@H](O[C@@H]3/C(C)=C/C[C@@H]4C[C@@H](C[C@]5(C=C[C@H](C)[C@@H](C6CCCCC6)O5)O4)OC(=O)[C@@H]4C=C(C)[C@@H](O)[C@H]5OC/C(=C\C=C\[C@@H]3C)[C@]54O)C[C@@H]2OC)O[C@@H](C)[C@@H]1O here.
Response: 32.3

Request: Supply recorded %Cell death Caco-2 for CCCCCCCCCCCC1=C(O)C(=O)C=C(O)C1=O here.
Response: 1.7

Request: Supply recorded %Cell death Caco-2 for O=C1Nc2ccc(Cl)cc2[C@@](C#CC2CC2)(C(F)(F)F)O1 here.
Response: 20.5

Request: Supply recorded %Cell death Caco-2 for OC1(c2ccc(Cl)c(C(F)(F)F)c2)CCN(CCCC(c2ccc(F)cc2)c2ccc(F)cc2)CC1 here.
Response: 90.0

Request: Supply recorded %Cell death Caco-2 for CCN(CC)CCOc1ccc(C(=C(Cl)c2ccccc2)c2ccccc2)cc1 [Clomiphene citrate] here.
Response: 34.7

Request: Supply recorded %Cell death Caco-2 for CC(C)(C)c1ccc(C(O)CCCN2CCC(C(O)(c3ccccc3)c3ccccc3)CC2)cc1 (stereo not shown) here.
Response: 79.7
